Source: patent EP0292291B1

System: Lizard (Anolis carolinensis) Skin
Type: cell-based
Settings: linear analogues; P = prolonged action
Non-standard residues stand in square brackets, D forms with d. Residues, ends and D or L forms follow the SMILES beside them. Nle = CCCC[C@H](N)C(=O)O

# Compound, Residual Activity Lizard
rows = [
    ("CCCC[C@H](NC(C)=O)C(=O)N[C@@H](CC(=O)O)C(=O)N[C@@H](Cc1c[nH]cn1)C(=O)N[C@H](Cc1ccccc1)C(=O)N[C@@H](CCCNC(=N)N)C(=O)N[C@@H](Cc1c[nH]c2ccccc12)C(=O)N[C@@H](CCCCN)C(=O)NCC(=O)N1CCC[C@H]1C(=O)N[C@H](C(N)=O)C(C)C [Analogue 4] (Ac-[Nle]DH[dF]RWKGPV-NH2)", "P(+)"),
    ("CCCC[C@H](NC(=O)[C@H](CO)NC(=O)[C@H](Cc1ccc(O)cc1)NC(=O)[C@H](CO)NC(C)=O)C(=O)N[C@@H](CCC(=O)O)C(=O)N[C@@H](Cc1c[nH]cn1)C(=O)N[C@H](Cc1ccccc1)C(=O)N[C@@H](CCCNC(=N)N)C(=O)N[C@@H](Cc1c[nH]c2ccccc12)C(=O)N[C@@H](CCCCN)C(=O)NCC(=O)N1CCC[C@H]1C(=O)N[C@H](C(N)=O)C(C)C [Analogue 1] (Ac-SYS[Nle]EH[dF]RWKGPV-NH2)", "P(-)"),
    ("CCCC[C@H](NC(=O)[C@H](CO)NC(=O)[C@H](Cc1ccc(O)cc1)NC(=O)[C@H](CO)NC(C)=O)C(=O)N[C@@H](CC(=O)O)C(=O)N[C@@H](Cc1c[nH]cn1)C(=O)N[C@H](Cc1ccccc1)C(=O)N[C@@H](CCCNC(=N)N)C(=O)N[C@@H](Cc1c[nH]c2ccccc12)C(=O)N[C@@H](CCCCN)C(=O)NCC(=O)N1CCC[C@H]1C(=O)N[C@H](C(N)=O)C(C)C [Analogue 2] (Ac-SYS[Nle]DH[dF]RWKGPV-NH2)", "P(-)"),
]
